List of apparent KD of MS2 coat protein values.
tested on: MS2 coat protein; test: apparent KD of MS2 coat protein; designed switch direction (-1 OFF switch, 1 ON switch): -1; higher = weaker reporter binding; details: Eterna round: R95; input ligand: microRNA oligo, concentration not stated

sequence.input	apparent KD of MS2 coat protein
CUUAGACAUGAGGAUCACCCAUGUGAGGAUAUGAAAUUAAUUAAUUAUUAAGUAUGAAUCAGAAGGCACAUAUG [Mat - Mod of Hyphema D36] (puzzle: Exclusion 1)	81.6 nM
CCUCCACAUGAGGAUCACCCAUGUCAGGAUAUCGUGUGUUUUUUUUCGGUCUUUCGUGCGAGAAGGGACGUCUG (puzzle: Exclusion 1)	28.1 nM
UUUAAUUUUUUUUUUUUACAAGCUUUUUGCUCGUCUUAUACAUGAGGAUCACCCAUGUGGAUGGAGGAUAAAUUAUC [JMF 31] (puzzle: Sensor v3, turn-off variant 2)	18.7 nM

Values from the supplement of paper PMC9170038
